- systemTested: Muscarinic acetylcholine receptor M1 (Homo sapiens)
- Sequence (P11229 whole entry): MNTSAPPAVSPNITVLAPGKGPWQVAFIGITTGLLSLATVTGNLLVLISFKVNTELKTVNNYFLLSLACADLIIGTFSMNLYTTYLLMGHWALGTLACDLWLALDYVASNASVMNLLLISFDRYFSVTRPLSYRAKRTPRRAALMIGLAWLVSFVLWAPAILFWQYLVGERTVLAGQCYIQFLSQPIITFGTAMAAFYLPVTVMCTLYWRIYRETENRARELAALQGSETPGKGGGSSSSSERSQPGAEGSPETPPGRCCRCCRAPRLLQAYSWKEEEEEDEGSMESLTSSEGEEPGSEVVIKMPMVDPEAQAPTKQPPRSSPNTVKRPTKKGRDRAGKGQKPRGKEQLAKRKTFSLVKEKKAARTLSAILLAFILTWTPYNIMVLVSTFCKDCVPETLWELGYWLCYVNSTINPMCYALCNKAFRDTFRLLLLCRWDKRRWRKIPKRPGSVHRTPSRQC
measurementType: Ki

Check out these entries, answers already filled in.
# compound, Ki
data = [
    ("C[C@H]1O[C@@H]([C@@H]2CCCN2C)C[S@@+]1[O-]", "> 100 µM"),
    ("C#CCOC(=O)C1=CCCN(C)C1", "1.23 µM"),
    ("C[C@@H]1O[C@H]([C@@H]2CCCN2C)C[S@@+]1[O-]", "> 100 µM"),
    ("C[C@H]1O[C@@H]([C@@H]2CCCN2C)C[S@+]1[O-]", "> 100 µM"),
    ("C[N+](C)(C)CC#CCOC(=O)Nc1ccc(Cl)cc1", "1.95 µM"),
    ("C[C@@H]1O[C@H]([C@@H]2CCCN2C)C[S@+]1[O-]", "> 100 µM"),
]

Ki lookup needed for `C[C@@H]1O[C@H]([C@H]2CCC[N+]2(C)C)C[S@@+]1[O-]` , thanks.
> 100 µM

Ki lookup needed for `C[C@@H]1O[C@H]([C@H]2CCC[N+]2(C)C)C[S@+]1[O-]` , thanks.
> 100 µM

Ki lookup needed for `C[C@H]1O[C@@H]([C@@H]2CCC[N+]2(C)C)C[S@+]1[O-]` , thanks.
> 100 µM

* * *

Below, each of the compounds is paired with its reported pD2 value.
- systemTested: Muscarinic acetylcholine receptor M3 (Cavia porcellus)
- protocolNotes: Agonist potency at muscarinic M3 receptor in guinea pig ileum
- Format: functional, tissue-based
Would you mind answering with just the numeric figure?

Check out these entries, answers already filled in.
# compound, systemTested, measuredNumber
records = [
    ("C[C@H]1O[C@@H](C[N+](C)(C)C)C[S+]1[O-] (single isomer, unassigned; (-))", "Muscarinic acetylcholine receptor M3 (Cavia porcellus)", 6.95),
    ("C#CCOC(=O)C1=CCCN(C)C1", "Muscarinic acetylcholine receptor M3 (Cavia porcellus)", 7.64),
    ("C[C@@H]1O[C@H]([C@@H]2CCC[N+]2(C)C)C[S@@+]1[O-]", "Muscarinic acetylcholine receptor M3 (Cavia porcellus)", 4.62),
]

Would you kindly look at the next entry?
pD2 lookup needed for `C[C@@H]1O[C@H]([C@H]2CCC[N+]2(C)C)C[S@@+]1[O-]` , thanks.
5.58

* * *

- systemTested: Muscarinic acetylcholine receptor M5 (Homo sapiens, UniProt P08912)
- Sequence (P08912 whole entry): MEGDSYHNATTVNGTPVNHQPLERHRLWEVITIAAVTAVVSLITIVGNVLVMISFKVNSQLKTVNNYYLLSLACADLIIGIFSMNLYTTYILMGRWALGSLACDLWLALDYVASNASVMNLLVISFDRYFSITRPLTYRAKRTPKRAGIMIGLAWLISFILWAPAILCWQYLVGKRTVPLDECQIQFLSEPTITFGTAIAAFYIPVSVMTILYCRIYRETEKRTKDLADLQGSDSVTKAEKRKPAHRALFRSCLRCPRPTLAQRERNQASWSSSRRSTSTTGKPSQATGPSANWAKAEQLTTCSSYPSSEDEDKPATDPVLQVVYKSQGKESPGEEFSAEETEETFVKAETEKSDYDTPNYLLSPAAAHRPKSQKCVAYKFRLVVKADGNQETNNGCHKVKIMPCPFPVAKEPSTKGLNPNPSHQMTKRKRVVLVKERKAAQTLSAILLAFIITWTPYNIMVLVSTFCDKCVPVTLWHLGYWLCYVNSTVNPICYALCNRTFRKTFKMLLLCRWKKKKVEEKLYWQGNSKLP
pKi: −log10 of the molar value.
measurementType: pKi

# compound, pKi
data = [
    ("C[C@@H]1O[C@H]([C@@H]2CCC[N+]2(C)C)C[S@+]1[O-]", "< 4.00"),
    ("C[C@H]1O[C@@H]([C@H]2CCCN2C)C[S@+]1[O-]", "< 4.00"),
    ("C[C@@H]1O[C@H]([C@H]2CCC[N+]2(C)C)C[S@@+]1[O-]", "< 4.00"),
    ("C[C@@H]1O[C@H]([C@H]2CCC[N+]2(C)C)C[S@+]1[O-]", "< 4.00"),
]

Fill in the recorded pKi for this compound, with Muscarinic acetylcholine receptor M5 (Homo sapiens, UniProt P08912) as test system: C[C@H]1O[C@@H]([C@@H]2CCC[N+]2(C)C)C[S@@+]1[O-].[I-] (stereo in doubt; (+)-7)
4.24
